Target: MRGPRX4 + RAMP1 (Homo sapiens, UniProt Q96LA9)
Construct: expressed in transfected cells; host or cells: HEK293T
Sequence (Q96LA9 whole entry): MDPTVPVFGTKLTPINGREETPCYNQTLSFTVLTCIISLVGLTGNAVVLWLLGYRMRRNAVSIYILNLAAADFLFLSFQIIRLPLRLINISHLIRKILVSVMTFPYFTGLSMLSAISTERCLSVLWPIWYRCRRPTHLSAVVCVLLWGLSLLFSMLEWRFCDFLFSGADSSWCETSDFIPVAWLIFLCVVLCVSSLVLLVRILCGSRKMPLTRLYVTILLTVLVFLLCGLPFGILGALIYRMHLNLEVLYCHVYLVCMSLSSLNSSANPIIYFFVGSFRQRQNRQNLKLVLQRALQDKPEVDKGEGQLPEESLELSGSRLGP
Assay: IP1 accumulation, MRGPRX4 coexpressed with RAMP1
Assay type: cell-based
Details: MRGPRX4 + RAMP1 2 pg (Fig. S3); normalized per agonist; read-out: IP1 EC50
PROPERTY MEASURED: EC50 (µM)
Report only the number, with the unit µM understood.

Inquiry: Return value of EC50 for input CC(C)[C@H]1CC[C@H](C(=O)N[C@H](Cc2ccccc2)C(=O)O)CC1 [Nateglinide] , no commentary.
Reply text: 9.37

---

Target: MRGPRX4 (Homo sapiens)
Construct: expressed in transfected cells; host or cells: HEK293T
Experiment: IP1 accumulation HTRF assay, MRGPRX4
Format: cell-based
Details: construct FLAG-MRGPRX4-1D4 (Fig. S4A-F); read-out: IP1 EC50
Procedure: HEK293T cells were transfected with 1 pg/cell of MRGPRX4 DNA, and the amount of DNA was kept constant at 2 pg/cell with pcDNA3.1(+) empty vector, unless otherwise specified. Twenty four hours after transfection, IP1 assay was performed as previously described ([51]). […] Time-resolved fluorescence signals were read on the BioTek Synergy NEO-TRF Hybrid multi-mode reader (BioTek Instruments). […]
PROPERTY MEASURED: EC50 (µM)
Give the value, in units of µM, as a plain number.

Inquiry: Answer with the recorded EC50 for the compound listed here: CC(C)[C@H]1CC[C@H](C(=O)N[C@H](Cc2ccccc2)C(=O)O)CC1 [Nateglinide]
Reply text: 10.1

---

Biological target: MRGPRX4 (Homo sapiens, UniProt Q96LA9)
Construct: expressed in transfected cells; host or cells: HEK293T
Sequence (Q96LA9 whole entry): as above
Assay: IP1 accumulation HTRF assay, MRGPRX4
Format: cell-based
Conditions: MRGPRX4 DNA […] (Fig. S1); read-out: IP1 EC50
PROPERTY MEASURED: pEC50
Scale: pEC50 equals -log10([C]), with [C] in mol/L.

Inquiry: Specify the recorded pEC50 for CC(C)[C@H]1CC[C@H](C(=O)N[C@H](Cc2ccccc2)C(=O)O)CC1 [Nateglinide] , system: MRGPRX4 (Homo sapiens, UniProt Q96LA9).
Reply text: 4.86

---

Target: MRGPRX4 (Homo sapiens, UniProt Q96LA9)
Construct: expressed in transfected cells; host or cells: HEK293T
Experiment: IP1 accumulation HTRF assay, MRGPRX4
Type: cell-based
Details: construct HA-MRGPRX4-1D4 (Fig. S4A-F); read-out: IP1 EC50
PROPERTY MEASURED: pEC50
// pEC50 is dimensionless: -log10 of concentration (M)

Inquiry: Using known records, supply pEC50 for CC(C)[C@H]1CC[C@H](C(=O)N[C@H](Cc2ccccc2)C(=O)O)CC1 [Nateglinide]
Reply text: 4.97

---

Target: MRGPRX4 (Homo sapiens)
Construct: expressed in transfected cells; host or cells: HEK293T
Test: IP1 accumulation HTRF assay, MRGPRX4
Format: cell-based
Conditions: Tet-On MRGPRX4, over 1pg/cell Normalized, Dox 3300 ng/mL (Fig. S5C); read-out: IP1 EC50
PROPERTY MEASURED: pEC50
As a rule, pEC50 stands for the negative log10 of the concentration, concentration in M.

Inquiry: Answer with reported pEC50 of CC(C)[C@H]1CC[C@H](C(=O)N[C@H](Cc2ccccc2)C(=O)O)CC1 [Nateglinide]
Reply text: 5.04

---

Molecular target: MRGPRX4 (Homo sapiens, UniProt Q96LA9)
Construct: expressed in transfected cells; host or cells: HEK293T
Assay: IP1 accumulation HTRF assay, MRGPRX4
Assay type: cell-based
Conditions: Tet-On MRGPRX4 1pg/cell, Dox 1100 ng/mL (Fig. S5B); read-out: IP1 EC50
PROPERTY MEASURED: EC50 (µM)
Use µM as the unit, but write only the number.

Inquiry: Give recorded EC50. CC(C)[C@H]1CC[C@H](C(=O)N[C@H](Cc2ccccc2)C(=O)O)CC1 [Nateglinide]
Reply text: 10.8

---

Target: MRGPRX4 + RAMP2 (Homo sapiens, UniProt Q96LA9)
Construct: expressed in transfected cells; host or cells: HEK293T
Sequence (Q96LA9 whole entry): as above
Experiment: IP1 accumulation, MRGPRX4 coexpressed with RAMP2
Assay type: cell-based
Settings: MRGPRX4 + RAMP2 2 pg (Fig. S3); normalized per agonist; read-out: IP1 EC50
PROPERTY MEASURED: pEC50
Value format note: pEC50 is -log10 of concentration (mol/L); just state the number.

Inquiry: Consider the compound CC(C)[C@H]1CC[C@H](C(=O)N[C@H](Cc2ccccc2)C(=O)O)CC1 [Nateglinide] and give its recorded pEC50.
Reply text: 4.57

---

Biological target: MRGPRX4 + RAMP2 (Homo sapiens)
Construct: expressed in transfected cells; host or cells: HEK293T
Experiment: IP1 accumulation, MRGPRX4 coexpressed with RAMP2
Format: cell-based
Conditions: Tet-On MRGPRX4:RAMP2 Ratio 1:1 (Fig. S5E); read-out: IP1 EC50
PROPERTY MEASURED: pEC50
Keep in mind that pEC50 stands for -log10 of concentration in molar terms.

Inquiry: Quick one: give measured pEC50 for CC(C)[C@H]1CC[C@H](C(=O)N[C@H](Cc2ccccc2)C(=O)O)CC1 [Nateglinide]
Reply text: 4.78

---

Target: MRGPRX4 + RAMP1 (Homo sapiens)
Construct: expressed in transfected cells; host or cells: HEK293T
Assay: IP1 accumulation, MRGPRX4 coexpressed with RAMP1
Assay type: cell-based
Details: MRGPRX4 + RAMP1 1 pg (Fig. S3); normalized per agonist; read-out: IP1 EC50
PROPERTY MEASURED: EC50 (µM)
Hi! Could you send only the number? It should be in µM, unit omitted.

Inquiry: Read the entry CC(C)[C@H]1CC[C@H](C(=O)N[C@H](Cc2ccccc2)C(=O)O)CC1 [Nateglinide] and write its reported EC50.
Reply text: 9.45

---

Target: MRGPRX4 (Homo sapiens)
Construct: expressed in transfected cells; host or cells: HEK293T
Assay: IP1 accumulation HTRF assay, MRGPRX4
Type: cell-based
Conditions: MRGPRX4 DNA 0.5 pg/cell (Fig. S1); read-out: IP1 EC50
PROPERTY MEASURED: EC50 (µM)
Dear colleague, please return just the value in µM, with no unit written.

Inquiry: Identify the reported EC50 for the following entry. CC(C)[C@H]1CC[C@H](C(=O)N[C@H](Cc2ccccc2)C(=O)O)CC1 [Nateglinide]
Reply text: 11

---

Biological target: MRGPRX4 (Homo sapiens)
Construct: expressed in transfected cells; host or cells: HEK293T
Assay: IP1 accumulation HTRF assay, MRGPRX4
Type: cell-based
Settings: Tet-On MRGPRX4 2pg/cell, Dox 40 ng/mL (Fig. S5A); read-out: IP1 EC50
PROPERTY MEASURED: EC50
Answer with the figure and its unit, nothing else.

Inquiry: Supply recorded EC50 for CC(C)[C@H]1CC[C@H](C(=O)N[C@H](Cc2ccccc2)C(=O)O)CC1 [Nateglinide] here.
Reply text: 6.07 µM

---

Consider the following compounds and their measured IP1 Basal readings.
Molecular target: MRGPRX4 (Homo sapiens, UniProt Q96LA9)
Construct: expressed in transfected cells; host or cells: HEK293T
Test: IP1 accumulation HTRF assay, MRGPRX4
Assay type: cell-based
Parameters: key: % IP1: unstimulated mock-transfected = 0%, fully stimulated MRGPRX4 = 100%
Settings: MRGPRX4 (Fig. 1A), HEK293T; normalized to 100 μM nateglinide
Procedure: HEK293T cells were transfected with 1 pg/cell of MRGPRX4 DNA, and the amount of DNA was kept constant at 2 pg/cell with pcDNA3.1(+) empty vector, unless otherwise specified. Twenty four hours after transfection, IP1 assay was performed as previously described ([51]). […] Time-resolved fluorescence signals were read on the BioTek Synergy NEO-TRF Hybrid multi-mode reader (BioTek Instruments). […]

>>> measured_value("C[C@H](CCC(=O)O)[C@H]1CC[C@H]2[C@@H]3[C@@H](O)C[C@@H]4C[C@H](O)CC[C@]4(C)[C@H]3CC[C@]12C")
13.66
>>> measured_value("C[C@H](CCC(=O)O)[C@H]1CC[C@H]2[C@@H]3CC[C@@H]4C[C@H](O)CC[C@]4(C)[C@H]3C[C@H](O)[C@]12C")
15.03
>>> measured_value("C[C@H](CCC(=O)NCCS(=O)(=O)O)[C@H]1CC[C@H]2[C@@H]3CC[C@@H]4C[C@H](O)CC[C@]4(C)[C@H]3C[C@H](O)[C@]12C")
14.54

Inquiry: Return value of IP1 Basal for input CC(C)[C@H]1CC[C@H](C(=O)N[C@H](Cc2ccccc2)C(=O)O)CC1 [Nateglinide] , no commentary.
Reply text: 14.95

---

Biological target: MRGPRX4 (Homo sapiens, UniProt Q96LA9)
Construct: expressed in transfected cells; host or cells: HEK293T
Experiment: IP1 accumulation HTRF assay, MRGPRX4
Format: cell-based
Details: Tet-On MRGPRX4:RAMP Ratio 1:0 (Fig. S5D-F); read-out: IP1 EC50
PROPERTY MEASURED: EC50 (µM)
Give the value in µM but do not write µM after it.

Inquiry: Assign EC50 to the following record: CC(C)[C@H]1CC[C@H](C(=O)N[C@H](Cc2ccccc2)C(=O)O)CC1 [Nateglinide]
Reply text: 4.06
